Data provenance is patent US10913757B2.

System: rat liver mitochondria (RLM)
Test: Mitochondrial transmembrane electric potential (ΔΨ) of RLM, safranine fluorescence
Assay type: biochemical
Settings: succinate; 10 μM
readout: Maximum potential (ΔΨ in - mV)
Just so you know, I need the unit written after the number.

Here are 5 compounds together with their reported answers.
{"compound": "CS(=O)(=O)[O-].O=C(/C=C/c1ccc(O)c(O)c1)NCCCCCCCC[P+](c1ccccc1)(c1ccccc1)c1ccccc1 [AntiOxCIN3]", "readout": "Maximum potential (ΔΨ in - mV)", "result": "189.7 ± 7.8 mV"}
{"compound": "CS(=O)(=O)[O-].O=C(/C=C/c1cc(O)c(O)c(O)c1)NCCCCCCCCCC[P+](c1ccccc1)(c1ccccc1)c1ccccc1 [AntiOxCIN7]", "readout": "Maximum potential (ΔΨ in - mV)", "result": "176.9 ± 3.1 mV"}
{"compound": "CS(=O)(=O)[O-].O=C(/C=C/c1cc(O)c(O)c(O)c1)NCCCCCCCC[P+](c1ccccc1)(c1ccccc1)c1ccccc1 [AntiOxCIN5]", "readout": "Maximum potential (ΔΨ in - mV)", "result": "180.8 ± 4.0 mV"}
{"compound": "CS(=O)(=O)[O-].O=C(/C=C/c1ccc(O)c(O)c1)NCCCCCC[P+](c1ccccc1)(c1ccccc1)c1ccccc1 [AntiOxCIN2]", "readout": "Maximum potential (ΔΨ in - mV)", "result": "190.0 ± 6.3 mV"}
{"compound": "CS(=O)(=O)[O-].O=C(/C=C/c1cc(O)c(O)c(O)c1)NCCCCCC[P+](c1ccccc1)(c1ccccc1)c1ccccc1 [AntiOxCIN4]", "readout": "Maximum potential (ΔΨ in - mV)", "result": "187.4 ± 8.5 mV"}

Problem: Any idea what Maximum potential (ΔΨ in - mV) was measured for COC1=C(OC)C(=O)C(CCCCCCCCCC[P+](c2ccccc2)(c2ccccc2)c2ccccc2)=C(C)C1=O.CS(=O)(=O)[O-] [MitoQ, reference compound] ?
Result: 108.9 ± 3.8 mV

Problem: Could you do the same for CS(=O)(=O)[O-].O=C(/C=C/c1ccc(O)c(O)c1)NCCCCCCCCCC[P+](c1ccccc1)(c1ccccc1)c1ccccc1 [AntiOxCIN6] , please?
Result: 151.7 ± 9.3 mV
